system: MDA-MB-435; experiment: NCI tumour cell line growth inhibition, 48 h
Activity calls are given as the source filed them. Rule as the data show it: active = GI50 up to about 1.1 µM and inactive = higher.
Classes used: True = active, False = inactive

>  <molecule>
CC1(C)CC[C@]2(C)CC[C@]3(C)C(=CC[C@@H]4[C@@]5(C)CCC(=O)C(C)(C)[C@@H]5[C@H](O)C[C@]43C)[C@@H]2C1

>  <answer-label>
False

$$$$
>  <molecule>
Oc1ccc2c(c1)CCc1c-2n(CCN2CCOCC2)c2ccc(O)cc12

>  <answer-label>
False

$$$$
>  <molecule>
COC1CCN(N(C)C)O1 (centres undefined)

>  <answer-label>
False

$$$$
>  <molecule>
CC[C@H](C)C(=O)O[C@H]1CCC=C2C=C[C@H](C)[C@H](CC[C@@H]3C[C@@H](O)CC(=O)O3)[C@H]21

>  <answer-label>
False

$$$$
>  <molecule>
CC1=NN(C(=O)c2ccccc2O)C(=O)/C1=C/c1cccc([N+](=O)[O-])c1

>  <answer-label>
True

$$$$
>  <molecule>
O=S(=O)(O)CCCC1S(=O)(=O)OCCOS1(=O)=O

>  <answer-label>
False

$$$$
>  <molecule>
Cc1ccc(O)c(-c2csc(NCN3CCN(CNc4nc(-c5cc(C)ccc5O)cs4)CC3)n2)c1

>  <answer-label>
False

$$$$
>  <molecule>
CC(CO)[C@H]1OC(=O)C=C2[C@@]13O[C@@H]3[C@H]1OC(=O)[C@@]3(C)[C@H]4O[C@H]4C[C@@]2(C)[C@@H]13 (some centres undefined)

>  <answer-label>
False

$$$$
>  <molecule>
Cc1nc(Nc2ccccc2Cl)sc1C(=O)CC(=O)C(=O)Nc1c(Cl)cccc1Cl

>  <answer-label>
False

$$$$
>  <molecule>
O=C(c1ccccc1)c1ccc(COc2ccc(C(c3c(O)c4ccccc4oc3=O)c3c(O)c4ccccc4oc3=O)cc2)cc1

>  <answer-label>
False

$$$$
>  <molecule>
CCCN(C(=O)c1ccccc1)C(C#N)c1ccc(C(C#N)N(CCC)C(=O)c2ccccc2)cc1 (centres undefined)

>  <answer-label>
False

$$$$
>  <molecule>
CCN(CC)CCOc1ccc(N2Cc3cc(OC)c(OC)cc3C2=O)cc1

>  <answer-label>
False

$$$$
>  <molecule>
CC(C)=CCC[C@@H](C)/C=C/C=C(\C)C(=O)CC[C@@H]1CC[N@+]2(C)CCCC[C@H]12

>  <answer-label>
False

$$$$
>  <molecule>
COc1cc(CNc2nc3cc(C(F)(F)F)ccc3nc2C(=O)O)cc(OC)c1OC

>  <answer-label>
False

$$$$
>  <molecule>
O=C1C=CC(=O)c2c1ccc1c3ccccc3n(Cc3ccccc3)c21

>  <answer-label>
False

$$$$
>  <molecule>
CCN1C(=O)C(=Cc2ccc(-c3ccccc3)cc2)C(=O)N(CC)C1=S

>  <answer-label>
False

$$$$
>  <molecule>
CC(C)(C)OC(=O)NC(CCC(=O)OCc1ccccc1)C(=O)NCCCO (centres undefined)

>  <answer-label>
False

$$$$
>  <molecule>
Clc1nc(Cl)c(Cl)c(-c2ccccc2)n1

>  <answer-label>
False

$$$$
>  <molecule>
CC[C@H]1C[C@@H](O)[C@@H]2[C@H](O)[C@H](O)CN2C1

>  <answer-label>
False

$$$$
